- tested target: SMARCA4 (Homo sapiens)
- Construct: SMARCA4-HiBiT knock-in Hela monoclonal cell (CS3023226); host or cells: HeLa monoclonal cells with heterozygous HiBiT knock-in at the endogenous SMARCA4 locus
- Sequence (P51532 whole entry): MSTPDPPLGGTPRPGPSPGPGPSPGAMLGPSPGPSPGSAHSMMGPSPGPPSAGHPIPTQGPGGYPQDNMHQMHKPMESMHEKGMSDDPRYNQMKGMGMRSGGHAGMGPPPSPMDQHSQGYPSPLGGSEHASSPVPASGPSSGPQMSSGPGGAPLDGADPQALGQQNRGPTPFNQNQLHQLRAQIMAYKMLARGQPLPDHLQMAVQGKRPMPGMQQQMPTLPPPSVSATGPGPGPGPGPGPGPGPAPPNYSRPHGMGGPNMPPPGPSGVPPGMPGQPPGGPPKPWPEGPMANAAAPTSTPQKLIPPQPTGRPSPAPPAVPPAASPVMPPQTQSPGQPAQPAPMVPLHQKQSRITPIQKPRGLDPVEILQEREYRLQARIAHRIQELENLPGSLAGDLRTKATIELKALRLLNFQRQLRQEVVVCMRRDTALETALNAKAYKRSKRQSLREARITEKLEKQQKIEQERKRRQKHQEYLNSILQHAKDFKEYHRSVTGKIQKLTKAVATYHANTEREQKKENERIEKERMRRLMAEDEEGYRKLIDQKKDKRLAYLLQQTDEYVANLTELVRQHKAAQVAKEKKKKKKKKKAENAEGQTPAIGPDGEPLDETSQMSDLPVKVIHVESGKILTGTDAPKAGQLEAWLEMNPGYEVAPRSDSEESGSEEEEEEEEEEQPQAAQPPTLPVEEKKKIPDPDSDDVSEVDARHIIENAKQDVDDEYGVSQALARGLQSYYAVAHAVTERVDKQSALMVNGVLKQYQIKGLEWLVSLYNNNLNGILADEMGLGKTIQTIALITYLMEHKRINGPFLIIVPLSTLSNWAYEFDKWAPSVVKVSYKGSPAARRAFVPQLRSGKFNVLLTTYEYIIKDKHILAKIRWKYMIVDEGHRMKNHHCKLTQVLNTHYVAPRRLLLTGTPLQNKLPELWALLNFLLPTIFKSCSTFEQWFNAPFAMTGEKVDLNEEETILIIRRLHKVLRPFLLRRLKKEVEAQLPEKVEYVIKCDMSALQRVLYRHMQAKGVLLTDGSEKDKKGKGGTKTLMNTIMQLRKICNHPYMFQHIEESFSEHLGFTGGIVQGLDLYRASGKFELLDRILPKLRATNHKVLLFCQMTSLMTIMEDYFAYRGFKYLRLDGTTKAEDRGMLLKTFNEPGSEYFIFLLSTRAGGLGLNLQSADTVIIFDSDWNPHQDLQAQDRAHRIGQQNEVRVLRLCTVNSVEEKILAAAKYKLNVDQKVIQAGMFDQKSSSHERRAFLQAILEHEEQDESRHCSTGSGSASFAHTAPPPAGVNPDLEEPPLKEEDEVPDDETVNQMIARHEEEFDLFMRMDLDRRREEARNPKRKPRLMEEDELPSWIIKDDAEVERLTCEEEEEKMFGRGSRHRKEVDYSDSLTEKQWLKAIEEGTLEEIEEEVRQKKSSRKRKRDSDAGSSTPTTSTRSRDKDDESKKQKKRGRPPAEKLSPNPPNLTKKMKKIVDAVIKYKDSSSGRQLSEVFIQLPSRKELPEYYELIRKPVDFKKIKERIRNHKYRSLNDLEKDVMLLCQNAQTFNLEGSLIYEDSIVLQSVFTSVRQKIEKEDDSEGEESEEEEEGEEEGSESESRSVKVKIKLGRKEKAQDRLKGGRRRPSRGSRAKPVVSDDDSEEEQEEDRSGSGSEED
- assay explanation: SMARCA4 HiBiT degradation assay in HeLa cells
- Format: cell-based
- conditions: 18 hours, highest concentration 10 μM
This listing pairs compounds with measured Dmax.

In: What value of Dmax has been recorded for this entry: COc1cc(O[C@@H]2C[C@@H]3CNc4nnc(-c5cc(F)cc(F)c5O)cc4N3C2)ccc1CN1CCN(c2ccc3c(c2)C(=O)N(C2CCC(=O)NC2=O)C3)CC1 (some centres unmarked)
Out: > 75%

In: What value of Dmax has been recorded for this entry: O=C1CCC(N2Cc3ccc(N4CCN(Cc5ccc(O[C@@H]6C[C@@H]7CNc8nnc(-c9cccc(Cl)c9O)cc8N7C6)cc5)CC4)cc3C2=O)C(=O)N1 (some centres unmarked)
Out: > 75%

In: What value of Dmax has been recorded for this entry: O=C1CCC(N2Cc3ccc(N4CCN(Cc5ccc(O[C@@H]6C[C@@H]7CNc8nnc(-c9cc(F)cc(F)c9O)cc8N7C6)cc5)CC4)cc3C2=O)C(=O)N1 (some centres unmarked)
Out: > 75%

In: What value of Dmax has been recorded for this entry: Cc1c(O[C@H]2CN3c4cc(-c5cccc(F)c5O)nnc4NC[C@@]3(C(F)F)C2)cnc(CN2CCN(c3ccc4c(c3)C(=O)N([C@H]3CCC(=O)NC3=O)C4)CC2)c1F
Out: < 50%

In: What value of Dmax has been recorded for this entry: Cc1cc(O[C@@H]2C[C@H]3CNc4nnc(-c5cccc(F)c5O)cc4N3C2)ccc1CN1CCC(c2ccc3c(c2)C(=O)N(C2CCC(=O)NC2=O)C3)CC1 (some centres unmarked)
Out: > 75%

FYI, the data here is from patent US20240165244A1.
